The origin of these recorded values is patent US20020051978A1.

# Tested on: 60 cancer cell lines (NCI 60 cancer cell line series)
# assay.details: NCI-DTP in vitro cancer screen, sulforhodamine B (SRB) growth inhibition, 48 hour exposure
# Assay type: cell-based, human
# conditions.used: Breast MDA-MB-231 CL5005
Where a name gives a salt, the structure may show the parent alone.
Attribute: classification of cell line as Low(1), Medium(2) or High(3) sensitivity to compound
Respond with the number and no other words.

These recorded examples may help you get a feel for the data.
COc1cccc2c1C(=O)c1c(O)c3c(c(O)c1C2=O)C[C@@](O)(C(C)=O)C[C@@H]3O[C@H]1C[C@H](N)[C@H](O)[C@H](C)O1 : 1
CC[C@]1(O)C[C@@H]2CN(CCc3c([nH]c4ccccc34)[C@@](C(=O)OC)(c3cc4c(cc3OC)N(C)[C@H]3[C@@](O)(C(=O)OC)[C@H](OC(C)=O)[C@]5(CC)C=CCN6CC[C@]43[C@@H]65)C2)C1 [Vinblastinesulfate] : 2

Per the record, N.N.[Cl][Pt][Cl] [cisplatin, cis-Diamminedichloroplatinum (II), reference compound] has classification of cell line as Low(1), Medium(2) or High(3) sensitivity to compound of 1

Per the record, CN(Cc1cnc2nc(N)nc(N)c2n1)c1ccc(C(=O)N[C@@H](CCC(=O)O)C(=O)O)cc1 [Methotrexate] has classification of cell line as Low(1), Medium(2) or High(3) sensitivity to compound of 1

Per the record, O=C1c2c(O)ccc(O)c2C(=O)c2c(NCCNCCO)ccc(NCCNCCO)c21 has classification of cell line as Low(1), Medium(2) or High(3) sensitivity to compound of 1

Per the record, COc1cc([C@@H]2c3cc4c(cc3[C@@H](O[C@@H]3O[C@@H]5CO[C@@H](c6cccs6)O[C@H]5[C@H](O)[C@H]3O)[C@H]3COC(=O)[C@H]23)OCO4)cc(OC)c1O [Teniposide] has classification of cell line as Low(1), Medium(2) or High(3) sensitivity to compound of 2

Per the record, CC[C@]1(O)C[C@H]2CN(CCc3c([nH]c4ccccc34)[C@@](C(=O)OC)(c3cc4c(cc3OC)N(C=O)[C@H]3[C@@](O)(C(=O)OC)[C@H](OC(C)=O)[C@]5(CC)C=CCN6CC[C@]43[C@@H]65)C2)C1 [Vincristine sulfate] has classification of cell line as Low(1), Medium(2) or High(3) sensitivity to compound of 2

Per the record, COc1cccc2c1C(=O)c1c(O)c3c(c(O)c1C2=O)C[C@@](O)(C(=O)CO)C[C@@H]3O[C@H]1C[C@H](N)[C@H](O)[C@H](C)O1 has classification of cell line as Low(1), Medium(2) or High(3) sensitivity to compound of 2

Per the record, O=c1[nH]cc(F)c(=O)[nH]1 has classification of cell line as Low(1), Medium(2) or High(3) sensitivity to compound of 1

Per the record, Sc1ncnc2nc[nH]c12 has classification of cell line as Low(1), Medium(2) or High(3) sensitivity to compound of 1

Per the record, NC(=O)NO [Hydroxyurea] has classification of cell line as Low(1), Medium(2) or High(3) sensitivity to compound of 1

Per the record, CC[C@@]1(O)C(=O)OCc2c1cc1n(c2=O)Cc2cc3c(CN(C)C)c(O)ccc3nc2-1 has classification of cell line as Low(1), Medium(2) or High(3) sensitivity to compound of 1

Per the record, COc1cc([C@@H]2c3cc4c(cc3[C@@H](O[C@@H]3O[C@@H]5CO[C@@H](C)O[C@H]5[C@H](O)[C@H]3O)[C@H]3COC(=O)[C@H]23)OCO4)cc(OC)c1O [Etoposide] has classification of cell line as Low(1), Medium(2) or High(3) sensitivity to compound of 2
